target: MERS-CoV 3CLpro (Middle East respiratory syndrome-related coronavirus (isolate United Kingdom/H123990006/2012) (MERS-CoV) (Betacoronavirus England 1), UniProt K9N7C7); type: biochemical
Sequence (K9N7C7 3248-3553 limits assumed): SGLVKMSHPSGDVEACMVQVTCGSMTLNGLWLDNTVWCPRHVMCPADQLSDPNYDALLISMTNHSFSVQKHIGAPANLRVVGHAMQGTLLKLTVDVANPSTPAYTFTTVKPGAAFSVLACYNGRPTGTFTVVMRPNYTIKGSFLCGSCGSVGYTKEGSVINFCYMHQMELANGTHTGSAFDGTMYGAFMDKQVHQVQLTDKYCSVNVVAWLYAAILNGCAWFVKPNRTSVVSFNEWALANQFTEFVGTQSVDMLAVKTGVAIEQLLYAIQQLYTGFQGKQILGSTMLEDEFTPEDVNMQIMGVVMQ
measurement_label: IC50 (nM)
Numbers only here, please. The scale is nM.

| molecule | endpoint_result |
| --- | --- |
| CC(C)C[C@H](NC(=O)OCC12CC3CC(CC(C3)C1)C2)C(=O)N[C@@H](C[C@H]1CCNC1=O)C(O)S(=O)(=O)O (stereo partly drawn) | 53 |
| CC(C)C[C@H](NC(=O)OCC1C[C@H]2CCC[C@@H](C1)C2)C(=O)N[C@@H](C[C@@H]1CCNC1=O)C(O)S(=O)(=O)[O-].[Na+] (stereo partly drawn) | 49 |
| CC(C)C[C@H](NC(=O)OCC12CC3CC(CC(C3)C1)C2)C(=O)N[C@H](C=O)C[C@H]1CCNC1=O | 55 |

q: For CC(C)C[C@H](NC(=O)OCC1CC2CCC1C2)C(=O)N[C@@H](C[C@@H]1CCNC1=O)C(O)S(=O)(=O)O (stereo partly drawn) , write its IC50.
a: 58

q: Determine its reported IC50: `CC(C)C[C@H](NC(=O)OC[C@@H]1C[C@@H]2CCC[C@@H](C2)C1)C(=O)N[C@H](C=O)C[C@@H]1CCNC1=O`
a: 52

q: Indicate its recorded IC50; the molecule in question is CC(C)C[C@H](NC(=O)OCC1CC2CCC1C2)C(=O)N[C@H](C=O)C[C@@H]1CCNC1=O (stereo partly drawn)
a: 63

###

Below: a set of entries, each annotated with reported pIC50.
target: SARS-CoV-2 3CLpro (Severe acute respiratory syndrome coronavirus 2 (2019-nCoV) (SARS-CoV-2)); assay: biochemical; type: biochemical; conditions: read-out: IC50
Note on pIC50: it is the negative log10 of concentration, concentration in mol/L.

Reference set (4 entries):
| compound | pIC50 |
| --- | --- |
| CC(C)C[C@H](NC(=O)OC1CC2CCC(C1)N2C(=O)OC(C)(C)C)C(=O)N[C@@H](C[C@H]1CCNC1=O)C(O)S(=O)(=O)O (some centres unmarked) | 5.77 |
| CCCCCC12CCC(COC(=O)N[C@@H](CC(C)C)C(=O)N[C@H](C=O)C[C@@H]3CCNC3=O)(CC1)CC2 | 6.57 |
| CC(C)C[C@H](NC(=O)OCC1C[C@H]2CCC[C@@H](C1)C2)C(=O)N[C@@H](C[C@@H]1CCNC1=O)C(O)S(=O)(=O)[O-].[Na+] (some centres unmarked) | 6.77 |
| CC(C)C[C@H](NC(=O)OCC1CC2CCC1C2)C(=O)N[C@@H](C[C@@H]1CCNC1=O)C(O)S(=O)(=O)O (some centres unmarked) | 7.00 |

q: Entry CCCCCC12CCC(COC(=O)N[C@@H](CC(C)C)C(=O)N[C@@H](C[C@@H]3CCNC3=O)C(O)S(=O)(=O)O)(CC1)CC2 (some centres unmarked) needs its pIC50 filled in; supply it.
a: 6.52

q: For the compound CC(C)C[C@H](NC(=O)OCC12CC3CC(CC(C3)C1)C2)C(=O)N[C@H](C=O)C[C@H]1CCNC1=O [Compound 2l] , give its measured pIC50 value.
a: 6.54

q: Tell us which pIC50 value is on record for [2H]C([2H])(OC(=O)N[C@@H](CC(C)C)C(=O)N[C@@H](C[C@@H]1CCNC1=O)C(O)S(=O)(=O)[O-])[C@@H]1C[C@@H]2C=CC[C@@H](C2)C1.[Na+] (some centres unmarked)
a: 6.52

###

tested on: SARS-CoV-2; assay: in vitro; details: African green monkey
measurement_label: selectivity ratio
Write the number on its own, no unit after it.

q: Name the recorded selectivity ratio of the molecule listed here: CC(C)C[C@H](NC(=O)OCC1C[C@H]2CCC[C@@H](C1)C2)C(=O)N[C@@H](C[C@@H]1CCNC1=O)C(O)S(=O)(=O)[O-].[Na+] (stereo partly shown)
a: 3120

###

test system: CRFK cells; conditions: cat
measurement_label: CC50

Worked set:
| compound | CC50 |
| --- | --- |
| CC(C)C[C@H](NC(=O)OC1CCC2(C1)CN(C(=O)OC(C)(C)C)C2)C(=O)N[C@H](C=O)C[C@H]1CCNC1=O (stereo partly shown) [Compound 6b] | > 100 µM |
| CC(C)C[C@H](NC(=O)OC1CC2(CCN(C#N)CC2)C1)C(=O)N[C@@H](C[C@H]1CCNC1=O)C(O)S(=O)(=O)O (stereo partly shown) [Compound 11c] | > 100 µM |
| CC(C)C[C@H](NC(=O)OC1CC2(C1)CN(S(C)(=O)=O)C2)C(=O)N[C@@H](C[C@H]1CCNC1=O)C(O)S(=O)(=O)O (stereo partly shown) [Compound 4c] | > 100 µM |

q: Find CC50 for CC(C)C[C@H](NC(=O)OC1CC2(C1)CN(S(C)(=O)=O)C2)C(=O)N[C@H](C=O)C[C@H]1CCNC1=O [Compound 4b] on CRFK cells and write it down.
a: > 100 µM

q: // output CC50; input CC(C)C[C@H](NC(=O)OCC1CN(C(=O)C2CC3CCC2C3)C1)C(=O)N[C@H](C=O)C[C@H]1CCNC1=O (stereo partly shown) [Compound 16b] ; system CRFK cells
a: > 100 µM

q: Recall the reported CC50 of CC(C)C[C@H](NC(=O)OC1(C)CN(C(=O)OC(C)(C)C)C1)C(=O)N[C@H](C=O)C[C@H]1CCNC1=O [Compound 13b] when tested on CRFK cells.
a: > 100 µM

q: Report CC50 on CRFK cells for this entry: CC(C)C[C@H](NC(=O)OC1CC2(CCN(C(=O)OC(C)(C)C)C2)C1)C(=O)N[C@H](C=O)C[C@H]1CCNC1=O (stereo partly shown) [Compound 5b]
a: > 100 µM

q: Provide measured CC50 on CRFK cells for CC(C)C[C@H](NC(=O)OCC1CN(S(C)(=O)=O)C1)C(=O)N[C@H](C=O)C[C@H]1CCNC1=O [Compound 17b] please.
a: > 100 µM

###

test system: SARS-CoV-2; assay: microbe, parasite or virus in culture; conditions: Severe acute respiratory syndrome coronavirus 2, Vero C1008, read-out: EC50 against SARS-CoV-2 in Vero E6 cells
measurement_label: pEC50
By convention, pEC50 is the negative base-10 log of a molar concentration.

q: Specify pEC50 for CC(C)C[C@H](NC(=O)OCC1C[C@H]2CCC[C@@H](C1)C2)C(=O)N[C@@H](C[C@@H]1CCNC1=O)C(O)S(=O)(=O)[O-].[Na+] (stereo partly shown) [Compound 3a] and stop.
a: 7.49

###

molecular target: SARS-CoV-2 3CLpro (Severe acute respiratory syndrome coronavirus 2 (2019-nCoV) (SARS-CoV-2)); assay: biochemical; assay type: biochemical
measurement_label: pIC50
The scale used: pIC50 is minus the common logarithm of the concentration in molar units.

q: Please report the measured pIC50 for CC(C)C[C@H](NC(=O)OCC1CN(C(=O)OC(C)(C)C)C1)C(=O)N[C@@H](C[C@H]1CCNC1=O)C(O)S(=O)(=O)O (stereo partly shown) [Compound 14c]
a: 7.30

###

test system: Huh-7, CRFK, or CCL1 cells
measurement_label: CC50

Some solved entries appear below for comparison.
| molecule | experimental_system | CC50 |
| --- | --- | --- |
| CC(C)C[C@H](NC(=O)OCCC12CC3CC(CC(C3)C1)C2)C(=O)N[C@@H](C[C@H]1CCNC1=O)C(O)S(=O)(=O)O (stereo partly drawn) | Huh-7, CRFK, or CCL1 cells | > 100 µM |
| CC(C)C[C@H](NC(=O)OC[C@@H]1C[C@@H]2CCC[C@@H](C2)C1)C(=O)N[C@H](C=O)C[C@@H]1CCNC1=O | Huh-7, CRFK, or CCL1 cells | > 100 µM |
| [2H]C([2H])(OC(=O)N[C@@H](CC(C)C)C(=O)N[C@@H](C[C@@H]1CCNC1=O)C(O)S(=O)(=O)[O-])[C@@H]1C[C@@H]2C=CC[C@@H](C2)C1.[Na+] (stereo partly drawn) | Huh-7, CRFK, or CCL1 cells | > 100 µM |
| CC(C)C[C@H](NC(=O)OCC1CC2C=CC1C2)C(=O)N[C@@H](C[C@@H]1CCNC1=O)C(O)S(=O)(=O)O (stereo partly drawn) | Huh-7, CRFK, or CCL1 cells | > 100 µM |
| [2H]C([2H])(OC(=O)N[C@@H](CC(C)C)C(=O)N[C@H](C=O)C[C@@H]1CCNC1=O)C12CCC(CCCCC)(CC1)CC2 | Huh-7, CRFK, or CCL1 cells | 20 µM |

Attention now shifts to the item below.
q: Give CC50 for CC(C)C[C@H](NC(=O)OCC1CC2CCC1C2)C(=O)N[C@@H](C[C@@H]1CCNC1=O)C(O)S(=O)(=O)O (stereo partly drawn)
a: > 100 µM
